test system: Plasmodium falciparum; assay: Calibr Malaria Delayed Death Assay SOP; assay type: functional, organism-based; set-up: scale not given: in the data most compounds retested in dose-response had high values; settings: concentration 4.99e-06 (unit not given; other assays of the set use mol/L)
Screen size: about 38,000 compounds; about 1,200 (3.2%) showed an effect of 50% or more. The median lay at about -58%. The sample holds strong results, similar compounds and a random draw of the others, so the mix is not that of the screen.
I'd appreciate it if you could supply Percent Effect values for the items below.
Answers are plain numbers, in %.

                                   compound  unit_abbreviation  assay_value
0  CCC(=O)N1CCC2(CCN(Cc3cccc(F)c3)CC2)CC1.O=C(O)C(F)(F)F                  %       -165.1
1  CC(=O)N1CCC2(CCN(Cc3cccc(F)c3)CC2)CC1.O=C(O)C(F)(F)F                  %       -62.85
2  Cc1cc(C)nc(CN(C)c2nc(C3CCCC3)nc3c2cnn3C)c1                  %       -50.46

Answer for every listed entry: what is its Percent Effect? The entries follow.
1. COC[C@@H]1CCC[C@@]12CN(C(=O)N1CCCC1)CCO2
2. Cc1ccc(O)c(CNCC(C)c2nc3ccccc3o2)n1 (stereo unspecified)
3. Cc1ncc(CN2CCC(c3ccnn3C)CC2)n1-c1ccccc1

A)
1: -140.1; 2: 62.12; 3: 30.79

* * *

tested on: Plasmodium falciparum; assay: Calibr Malaria Delayed Death Assay SOP; assay type: functional, organism-based; design: scale not given: in the data most compounds retested in dose-response had high values; conditions: concentration 4.99e-06 (unit not given; other assays of the set use mol/L)
About 1,200 (3.2%) of roughly 38,000 compounds showed an effect of 50% or more. The median lay at about -58%. The list comes from a sample in which strong results are over-represented; it also holds close analogues and randomly drawn compounds.
Quick rule for you: Percent Effect at -30% or higher means 1 (yes), lower means 0 (no).

Would you please look over these solved cases?
                                   compound  qualitative_label
0  CN(Cc1ccncc1)C1COC2(CCN(Cc3ccccn3)CC2)C1.O=C(O)C(F)(F)F.O=C(O)C(F)(F)F.O=C(O)C(F)(F)F.O=C(O)C(F)(F)F (centres undefined)             0 (no)
1  CS(=O)(=O)c1ccc(NC(=O)NC2(c3cccc(F)c3)CC2)cc1             0 (no)
2        Cc1ccccc1C1(C(=O)NCCN2CCCC2)CCOCC1            1 (yes)

Then this compound:
Q) I'd appreciate it if you could say whether CCOC(=O)CSc1nnc(C(N)CC(C)C)o1.Cl (centres undefined) has Percent Effect at least equal to -30%.
A) 0 (no)

* * *

test system: Plasmodium falciparum; experiment: Calibr Malaria Delayed Death Assay SOP; type: functional, organism-based; set-up: scale not given: in the data most compounds retested in dose-response had high values; conditions: concentration 4.99e-06 (unit not given; other assays of the set use mol/L)
The campaign covered roughly 38,000 compounds. About 1,200 (3.2%) showed an effect of 50% or more. The median lay at about -58%. The list comes from a sample in which strong results are over-represented; it also holds close analogues and randomly drawn compounds.
# label = bin(measured Percent Effect), where bins are I (below -70%), II (-70% to below 10%), III (10% or more)

Would you please look over these solved cases?
                                   molecule  qualitative_label
0        CCOC(=O)Cn1ccc(NC(=O)Cc2ccccc2F)n1                  I
1  CC1CN(CC2CCCC2)CCN1c1ccc2nncn2n1 (stereo not drawn)                III
2  CN1CCC(N(C)C[C@H]2CC[C@@H](Cc3ccc4occc4c3)O2)CC1                III
3      CCOCc1ncn2c1CN(C(=O)Nc1cccc(F)c1)CC2                  I

Then this molecule:
Q) Kindly identify the class of Cl.Clc1ccc(-c2ccc(C3CNCCO3)nc2)cc1 (stereo not drawn) .
A) III

* * *

test system: Plasmodium falciparum; assay: Calibr Malaria Delayed Death Assay SOP; type: functional, organism-based; parameters: scale not given: in the data most compounds retested in dose-response had high values; details: concentration 4.99e-06 (unit not given; other assays of the set use mol/L)
Hit rate of the full screen: of about 38,000 compounds, about 1,200 (3.2%) showed an effect of 50% or more. The median lay at about -58%. The sample holds strong results, similar compounds and a random draw of the others, so the mix is not that of the screen.
I'd appreciate it if you could supply Percent Effect values for the items below.
Numbers only, in %.

Answer for every listed entry: what is its Percent Effect? The entries follow.
1. O=C(NCCc1cccc(F)c1)c1nc2c(s1)CCCN2C(=O)C1CC1
2. O=c1[nH]c(NC2CCCC2)nc2nccc(-c3ccco3)c12
3. CNc1nc(C)c(C(=O)N2C[C@@H](C(=O)O)[C@H](C3CC3)C2)s1
4. Oc1ccc(Cl)cc1CNCc1cccc(C(F)(F)F)c1
5. Cc1ncc2c(n1)CN(Cc1nc(-c3ccco3)oc1C)CC2
6. O=c1[nH]c(NC2CCCC2)nc2nccc(-c3cccs3)c12
7. O=C(O)Cn1nc(C2CC2)c2c(-c3ccco3)ccnc21

A)
1. -105
2. 71.56
3. -129.8
4. 88.68
5. -128.1
6. 55.34
7. -116

Answer for every listed entry: what is its Percent Effect? The entries follow.
1. Cc1ccc2c(n1)N(CC(C)C)CCN(S(C)(=O)=O)C2.O=C(O)C(F)(F)F
2. NS(=O)(=O)c1ccc(CNCC(=O)NCc2ccc(Cl)cc2Cl)cc1

A)
[-91.42, -66.27]

Answer for every listed entry: what is its Percent Effect? The entries follow.
1. O=C(NC[C@H]1CCCC[C@H]1O)c1ccc2nc(-c3ccco3)[nH]c2c1
2. O=C(NC1CCCC1)C1Cc2nc(-c3ccsc3)sc2N1CC1CC1 (stereo unspecified)

A)
1. -121.1
2. -48.35

* * *

tested on: Plasmodium falciparum; test: Calibr Malaria Delayed Death Assay SOP; format: functional, organism-based; design: scale not given: in the data most compounds retested in dose-response had high values; settings: concentration 4.99e-06 (unit not given; other assays of the set use mol/L)
Hit rate of the full screen: of about 38,000 compounds, about 1,200 (3.2%) showed an effect of 50% or more. The median lay at about -58%. Shown is part of a subset that was picked to be rich in strong results.
RECORDED METRIC: Percent Effect

>>> print(df.to_string())
                                   molecule  assay_value
0  Cc1cc(NC(=O)N2CCCC2C(=O)NC2CC2)c2ncccc2c1 (stereo unspecified)        -118%
1   Cc1cc(NC(=O)NC2CCN(C(C)C)CC2)c2ncccc2c1       79.09%

Answer for every listed entry: what is its Percent Effect? The entries follow.
1. CC(=O)N1CCCN(Cc2ccon2)c2ccccc21
2. CC(C)(C)OC(=O)N1CCCc2ccc(NCc3ccon3)cc21
3. O=C(O)C(F)(F)F.O=S(=O)(c1cccs1)N1Cc2nc(CN3CCCC3)oc2C1
4. CC(C)(C)OC(=O)N1CCCN(Cc2ccon2)c2ccccc21

A)
1: -25.97%; 2: -36.28%; 3: -93.44%; 4: 84.05%

* * *

test system: Plasmodium falciparum; assay: Calibr Malaria Delayed Death Assay SOP; type: functional, organism-based; design: scale not given: in the data most compounds retested in dose-response had high values; settings: concentration 4.99e-06 (unit not given; other assays of the set use mol/L)
Screen size: about 38,000 compounds; about 1,200 (3.2%) showed an effect of 50% or more. The median lay at about -58%. Many of the other results were omitted from the sample, so strong results are more common in it than they were.
I'd appreciate it if you could supply Percent Effect values for the items below.

Solved cases below.
>>> print(df.to_string())
                                   compound  recorded_metric  assay_value
0          CCOC(=O)N1CCc2ccccc2C12CCNCC2.Cl   Percent Effect       52.81%
1          COCC(=O)N1CCc2ccccc2C12CCNCC2.Cl   Percent Effect      -57.82%
2  CCS(=O)(=O)N1CCc2c(CN3CCOCC3)cncc2C1.Cl.Cl   Percent Effect      -14.39%
3  CN(CCOCC1CC1)C(=O)Nc1ccc([S+](C)[O-])cc1 (configuration not stated)   Percent Effect      -126.1%
4        Fc1cccnc1Oc1cc(F)c(CN2CCCC2)c(F)c1   Percent Effect       13.36%
5  CCc1ccc2nc(C)cc(C(=O)N[C@@H]3CCCNC3)c2c1   Percent Effect       64.11%
6  CC(C)(C)C(=O)N1C[C@H](c2ccsc2)[C@H]2CN(Cc3cccs3)CC[C@H]21.Cl   Percent Effect       27.72%
7  NC(=O)CCC1CCCN(c2ccnc3cc(F)ccc23)C1 (configuration not stated)   Percent Effect       82.57%

Answer for every listed entry: what is its Percent Effect? The entries follow.
1. O=c1n(Cc2ccccc2F)nc2ncccn12
2. O=C(c1cnc(C2CC2)nc1O)N1CCN(Cc2ccccc2F)CC1
3. CCc1c(C)nc2ccccc2c1N1CCC(NC(C)=O)CC1
4. CCC[C@@H]1CN(C(=O)c2cc3ccccc3cc2O)C[C@H]1N(C)C
5. N#Cc1c(SCCN2CCCCCC2)sc2c(O)cc(O)nc12
6. CCNS(=O)(=O)c1cnccc1N1CCN(CCO)CC1
7. CCn1ccnc1C1CCN(Cc2c(F)cccc2F)CC1

A)
1: -19.66%; 2: -42.64%; 3: 21.66%; 4: 51.44%; 5: -30.34%; 6: -122.2%; 7: -140%

Answer for every listed entry: what is its Percent Effect? The entries follow.
1. CN(CCCOc1ccccc1)S(=O)(=O)c1cnn(C)c1
2. Cc1cccnc1CNC[C@H]1Cn2cc(-c3ccccc3)nc2CO1
3. CCc1c(C)nc2ccccc2c1N1CCC(C(=O)NC)CC1
4. O=C(CCN1CCCC(CO)(CC2CC2)C1)NCc1cccc(Cl)c1 (configuration not stated)
5. CC(C)(C)OC(=O)N1CCN(C(=O)c2cnn3c2OCCC3)CC1

A)
["-2.544%", "30.07%", "51%", "79.46%", "-73.8%"]

Answer for every listed entry: what is its Percent Effect? The entries follow.
1. Cc1ccc(C(=O)O)cc1CNC(=O)CN1CC[C@](C)(O)C(C)(C)C1
2. OCC1(Cc2cccc(Cl)c2)CCCN(c2ncccn2)C1 (configuration not stated)
3. CC(C)NC(=O)c1noc2c1CN(Cc1cnn(C)c1)CC2
4. CC(C)N(CC(N)=O)C(=O)c1cnc(-c2ccc3c(c2)OCO3)s1

A)
-2.954%
-87.85%
-77.7%
-184.6%

Answer for every listed entry: what is its Percent Effect? The entries follow.
1. Cl.O=C(C1CC1)N1CCc2ccccc2C12CCNCC2
2. CCC[C@@H]1CN(C(=O)c2ccccc2-c2ncc[nH]2)C[C@H]1N(C)C

A)
-61.72%
-89.87%

Reference source for all entries: ChEMBL document CHEMBL3988442
